tested on: BT-549 breast; assay: NCI-60 one-dose screen, 48 h (100 = growth as untreated, 0 = no growth, -100 = all killed); settings: 10 µM unless noted
About 83,000 compounds went through this panel and 20% of them were active in at least one assay; those are over-represented in the sample as a whole.
READOUT_KIND: growth (%)
Please state the figure in %; there is no need to write the unit.

# query: growth of entry `COc1ccc(/C=C(\C#N)n2nnc3c(F)cccc32)cc1`
45.4

====

tested on: HS 578T breast; experiment: NCI-60 one-dose screen, 48 h; conditions: 10 µM unless noted
About 83,000 compounds went through this panel and 20% of them were active in at least one assay; those are over-represented in the sample as a whole. The source made the active and inactive calls. The calls were made as follows: active = growth percent below 10; inactive = the rest.
Respond with a class label; see active, inactive

MOLECULE	ASSIGNED_CLASS
CC(=O)Oc1ccccc1C(=O)N=C1[Se]CCCN1C(=O)c1ccccc1OC(C)=O	inactive
COc1ccc(/C=N/Nc2cc(=O)[nH]c3ccc(Cl)cc23)cc1	inactive
c1ccc(-c2nc3sc(-c4ccccc4)cn3n2)cc1	inactive
CCOC(=O)Cn1c(=O)c2c(c3ccccc3n2C)n2nnc(-c3ccccc3)c12	inactive
NCCCNc1nc2ccc(Cl)cc2c2c(=O)c3cc(F)ccc3sc12	inactive

Please let me know the test result on file for `Cc1nc2ccccc2n1CC1C(=O)NC(=O)NC1=O` .
inactive

Hello, the source for this data is PubChem BioAssay (NCI), in case you need it.
